targetEntity: T1, human IL-36R extracellular domain expressed with a C-terminal myc-myc-hexahistidine tag (hIL-36R-MMH) (human, UniProt Q9HB29 20-337)
T1 construct: also called Human IL-36R-MMH; REGN2105
T1 sequence (Q9HB29 other isoform, or with tags, fused parts or gaps limits assumed): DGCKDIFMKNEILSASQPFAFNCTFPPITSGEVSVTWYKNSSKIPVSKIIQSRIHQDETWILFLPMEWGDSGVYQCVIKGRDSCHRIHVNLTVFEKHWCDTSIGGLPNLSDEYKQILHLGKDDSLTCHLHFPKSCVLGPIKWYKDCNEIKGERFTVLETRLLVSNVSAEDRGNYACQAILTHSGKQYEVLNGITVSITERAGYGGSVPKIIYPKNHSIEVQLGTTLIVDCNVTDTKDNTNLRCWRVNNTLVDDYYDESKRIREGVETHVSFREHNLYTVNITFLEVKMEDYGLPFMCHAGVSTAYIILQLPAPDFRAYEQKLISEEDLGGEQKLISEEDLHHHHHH
experimentalProtocol: SPR Biacore T200, mAb captured on anti-hFc, 25C, PBS-T pH 6.0 running buffer
Below is a list of entries, each paired with its recorded t1/2 value.
metricName: t1/2

INSERT INTO measurements (binder, result) VALUES
  ('H4H14706P2 (antibody, human IgG4 S228P, kappa, V domains shown, Fully human anti-IL-36R antibody) VH: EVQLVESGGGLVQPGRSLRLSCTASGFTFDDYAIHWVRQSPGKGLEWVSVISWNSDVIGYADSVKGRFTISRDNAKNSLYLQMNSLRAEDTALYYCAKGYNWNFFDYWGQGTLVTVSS VL: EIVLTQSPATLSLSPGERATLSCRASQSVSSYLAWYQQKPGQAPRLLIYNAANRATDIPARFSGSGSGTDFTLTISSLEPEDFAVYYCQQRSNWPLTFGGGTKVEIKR', '12 min'),
  ('H4H14728P (antibody, human IgG4 S228P, kappa, V domains shown, Fully human anti-IL-36R antibody) VH: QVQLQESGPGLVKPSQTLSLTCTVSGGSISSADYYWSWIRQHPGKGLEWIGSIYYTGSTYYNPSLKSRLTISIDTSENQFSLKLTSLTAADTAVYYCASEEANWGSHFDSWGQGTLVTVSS VL: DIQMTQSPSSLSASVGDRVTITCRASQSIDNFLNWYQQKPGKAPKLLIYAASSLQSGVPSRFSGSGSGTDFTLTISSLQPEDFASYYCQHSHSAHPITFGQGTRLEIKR', '13 min');
